# assay_remarks: Compound 122 saliva concentrations in healthy human subjects after oral administration (HPLC-MS/MS)
# Format: in vivo
# conditions: human, saliva, po, 10 mg, PM; Day 6; 10 mg b.i.d. oral; 4 hr; read-out: Mean saliva concentration, PM, Mean ± SD
endpoint_name: concentration at 4 h (ng/mL)
Use ng/mL as the unit, but write only the number.

Exam item: Reported concentration at 4 h for COc1ccc(OC(F)(F)F)cc1CNC1CCCNC1c1ccccc1 (stereo not shown) : what is it?
Marked response: 4.69

###

# assay_remarks: Compound 122 saliva concentrations in healthy human subjects after oral administration (HPLC-MS/MS)
# Assay type: in vivo
# conditions: human, saliva, po, 100 mg q.d., PM; Day 21; 100 mg q.d. oral; 24 hr; read-out: Mean saliva concentration, PM, Mean ± SD
endpoint_name: concentration at 24 h (ng/mL)
Use ng/mL as the unit, but write only the number.

Exam item: Reported concentration at 24 h for COc1ccc(OC(F)(F)F)cc1CNC1CCCNC1c1ccccc1 (stereo not shown) : what is it?
Marked response: 46.4

###

# assay_remarks: Compound 122 saliva concentrations in healthy human subjects after oral administration (HPLC-MS/MS)
# Format: in vivo
# conditions: human, saliva, po, 10 mg, EM + paroxetine; Day 6; 10 mg b.i.d. oral; 8 hr; read-out: Mean saliva concentration, EM + paroxetine, Mean ± SD
endpoint_name: concentration at 8 h (ng/mL)
Use ng/mL as the unit, but write only the number.

Exam item: Reported concentration at 8 h for COc1ccc(OC(F)(F)F)cc1CNC1CCCNC1c1ccccc1 (stereo not shown) [Compound 122] : what is it?
Marked response: 5.68

###

# assay_remarks: Compound 122 saliva concentrations in healthy human subjects after oral administration (HPLC-MS/MS)
# Format: in vivo
# conditions: human, saliva, po, 30 mg, EM + paroxetine; Day 11; 30 mg q.d. oral; 24 hr; read-out: Mean saliva concentration, EM + paroxetine, Mean ± SD
endpoint_name: concentration at 24 h (ng/mL)
Use ng/mL as the unit, but write only the number.

Exam item: Reported concentration at 24 h for COc1ccc(OC(F)(F)F)cc1CNC1CCCNC1c1ccccc1 (stereo not shown) [Compound 122] : what is it?
Marked response: 5.59

###

# assay_remarks: Compound 122 saliva concentrations in healthy human subjects after oral administration (HPLC-MS/MS)
# Format: in vivo
# conditions: human, saliva, po, 10 mg, PM; Day 6; 10 mg b.i.d. oral; 8 hr; read-out: Mean saliva concentration, PM, Mean ± SD
endpoint_name: concentration at 8 h (ng/mL)
Use ng/mL as the unit, but write only the number.

Exam item: Reported concentration at 8 h for COc1ccc(OC(F)(F)F)cc1CNC1CCCNC1c1ccccc1 (stereo not shown) : what is it?
Marked response: 3.23

###

# assay_remarks: Compound 122 saliva concentrations in healthy human subjects after oral administration (HPLC-MS/MS)
# Format: in vivo
# conditions: human, saliva, po, 30 mg, PM; Day 11; 30 mg q.d. oral; 4 hr; read-out: Mean saliva concentration, PM, Mean ± SD
endpoint_name: concentration at 4 h (ng/mL)
Use ng/mL as the unit, but write only the number.

Exam item: Reported concentration at 4 h for COc1ccc(OC(F)(F)F)cc1CNC1CCCNC1c1ccccc1 (stereo not shown) : what is it?
Marked response: 11.1
